Recorded IC50, one value per entry.
# study.system: hERG (Homo sapiens, UniProt Q12809)
# Sequence (Q12809 whole entry): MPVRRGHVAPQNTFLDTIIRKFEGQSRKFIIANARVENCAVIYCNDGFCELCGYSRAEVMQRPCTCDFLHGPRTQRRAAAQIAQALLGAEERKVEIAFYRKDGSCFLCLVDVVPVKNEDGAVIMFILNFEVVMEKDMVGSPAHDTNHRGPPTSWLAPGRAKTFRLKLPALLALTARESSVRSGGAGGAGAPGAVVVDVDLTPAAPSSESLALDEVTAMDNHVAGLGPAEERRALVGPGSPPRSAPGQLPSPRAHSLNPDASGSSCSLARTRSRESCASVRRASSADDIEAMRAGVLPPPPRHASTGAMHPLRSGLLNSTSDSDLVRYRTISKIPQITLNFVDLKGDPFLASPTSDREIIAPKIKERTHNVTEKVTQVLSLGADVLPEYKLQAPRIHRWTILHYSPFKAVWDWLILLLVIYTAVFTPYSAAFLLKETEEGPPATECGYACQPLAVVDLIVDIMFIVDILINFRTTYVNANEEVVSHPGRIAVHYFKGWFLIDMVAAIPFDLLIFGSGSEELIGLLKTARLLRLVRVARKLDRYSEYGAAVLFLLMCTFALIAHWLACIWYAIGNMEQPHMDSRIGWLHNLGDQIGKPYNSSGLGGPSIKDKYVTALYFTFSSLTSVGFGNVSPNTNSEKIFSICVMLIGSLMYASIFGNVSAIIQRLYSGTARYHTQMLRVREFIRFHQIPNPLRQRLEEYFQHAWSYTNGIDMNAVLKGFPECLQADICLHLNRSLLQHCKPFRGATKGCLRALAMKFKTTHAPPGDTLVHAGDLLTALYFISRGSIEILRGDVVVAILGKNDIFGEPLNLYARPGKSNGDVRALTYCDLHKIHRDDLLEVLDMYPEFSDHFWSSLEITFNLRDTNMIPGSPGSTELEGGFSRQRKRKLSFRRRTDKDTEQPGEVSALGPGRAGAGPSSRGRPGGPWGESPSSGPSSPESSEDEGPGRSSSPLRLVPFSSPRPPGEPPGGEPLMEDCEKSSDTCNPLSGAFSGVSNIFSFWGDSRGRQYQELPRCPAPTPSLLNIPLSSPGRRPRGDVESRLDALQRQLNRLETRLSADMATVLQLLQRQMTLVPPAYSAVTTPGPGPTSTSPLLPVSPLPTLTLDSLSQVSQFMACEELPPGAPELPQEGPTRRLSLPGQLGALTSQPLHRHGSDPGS
# test.details: cell-based
# measurement.conditions: (-LOG10(IC50), µM)

# compound, IC50 [µM]
records = [
    ("CC(CN1c2ccccc2Sc2ccccc21)N(C)C (stereo not shown) [Promethazine]", 19.7),
    ("CCCCCCCCCCCCn1cc[n+](C)c1 [1-Dodecyl-3-methylimidazolium iodide]", 10.6),
    ("CC1=C(C(=O)OC(C)C)C(c2cccc([N+](=O)[O-])c2)C(C(=O)OC2CN(C(c3ccccc3)c3ccccc3)C2)=C(N)N1 (stereo not shown)", 8.99),
    ("CCCCCCCCCCCC[N+](C)(C)C [Dodecyltrimethylammonium bromide]", 21),
    ("CC(C)=CCC[C@](C)(O)[C@@H]1CC=C(C)CC1", 38.9),
    ("CCC(C)(C)c1ccc(CC(C)CN2C[C@@H](C)O[C@@H](C)C2)cc1 (stereo partly shown)", 9.16),
    ("CCN(CC)CCNC(=O)COc1ccc(Cl)cc1 [Clofexamide]", 16.3),
    ("CN(C)C(=O)NC1(c2ccccc2)CCN(CCC[C@]2(c3ccc(Cl)c(Cl)c3)CCCN(C(=O)c3ccccc3)C2)CC1", 1.71),
    ("CC(C)Oc1cccc(NC(=O)c2ccccc2C(F)(F)F)c1", 50.9),
    ("CC(CC(C#N)(c1ccccc1)c1ccccc1)N(C)C (stereo not shown)", 29.6),
    ("COc1cc(C(C)(C)C)c(O)c(C(C)(C)C)c1", 38.9),
    ("O=[N+]([O-])c1ccc(Oc2ccc([N+](=O)[O-])cc2)cc1", 32.8),
    ("O=C1c2c(O)ccc(Nc3ccc(CCO)cc3)c2C(=O)c2c([N+](=O)[O-])ccc(O)c21", 43.6),
]
